# system under test: DNA dC->dU-editing enzyme APOBEC-3F (Homo sapiens) (UniProt Q8IUX4)
# Sequence (Q8IUX4 whole entry, looked up): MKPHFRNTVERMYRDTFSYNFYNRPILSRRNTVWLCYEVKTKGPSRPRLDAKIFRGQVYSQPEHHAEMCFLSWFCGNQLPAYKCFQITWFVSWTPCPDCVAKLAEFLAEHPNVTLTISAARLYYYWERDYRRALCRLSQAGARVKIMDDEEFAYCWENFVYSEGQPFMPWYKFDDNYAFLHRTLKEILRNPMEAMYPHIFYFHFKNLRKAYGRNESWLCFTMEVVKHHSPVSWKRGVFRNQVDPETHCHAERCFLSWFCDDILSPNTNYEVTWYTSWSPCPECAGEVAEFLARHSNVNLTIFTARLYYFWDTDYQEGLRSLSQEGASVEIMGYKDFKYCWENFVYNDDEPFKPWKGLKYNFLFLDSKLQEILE
# assay info: qHTS for inhibitors of Vif-A3F interactions: Cherry picks; note: potency is the fitted concentration of half-maximal effect; nearly all actives have a fitted effect of over 70% in size
# run parameters: HeLa A3F-eYFP + Vif, eYFP fluorescence, 24 h
Out of some 2,100 compounds screened, about 590 (28%) were called active. About 42% were inconclusive and are not listed. This is one part of the list.
Below, each entry is listed alongside its reported Potency.

structure string: Nc1c(C(=O)c2ccccc2)sc2snc(SCC(=O)c3ccccc3)c12
Potency: 17.7 µM (active)
//
structure string: O=C(NC1CCCCC1)c1cccc2c1C(=O)c1ccc(N3CCC(Cc4ccccc4)CC3)cc1S2(=O)=O
Potency: 12.5 µM (active)
//
structure string: O=C1c2cccc3c(N4CCCCC4)ccc(c23)C(=O)N1CCO
Potency: 15.8 µM (active)
//
structure string: CN(C)c1ccc(/C=C/c2cc(/C=C/c3ccc(N(C)C)cc3)c3ccccc3n2)cc1
Potency: 7.31 µM (active)
//
structure string: O=[N+]([O-])c1ccc(N/N=C/c2c[nH]c3ccccc23)c(S(=O)(=O)Nc2ccc(Cl)cc2)c1
Potency: 18.4 µM (active)
//
structure string: Oc1cccc(Nc2nc(O)c(/C=C3\C=Nc4ccccc43)s2)c1
Potency: 14.6 µM (active)
//
structure string: Nc1c(C(=O)c2ccccc2)sc2nsc(SCCN3CCCC3)c12
Potency: 14 µM (active)
//
structure string: O=C(NC1CC1)c1cccc2c1C(=O)c1ccc(N3CCC(Cc4ccccc4)CC3)cc1S2(=O)=O
Potency: 20.6 µM (active)
//
structure string: CCCNc1c(F)c(F)c2c(C)c3ccccc3nc2c1F
Potency: 14 µM (active)
//
structure string: CC(C)n1cnc2c(NCc3ccccc3)cc(N[C@H](C)CO)cc21
Potency: 12.5 µM (active)

----------
Below, each entry is listed alongside its reported Potency.
# system under test: DNA dC->dU-editing enzyme APOBEC-3F (Homo sapiens) (UniProt Q8IUX4)
# assay info: qHTS for inhibitors of Vif-A3F interactions: Cherry picks; note: potency is the fitted concentration of half-maximal effect; nearly all actives have a fitted effect of over 70% in size
# run parameters: HeLa A3F-eYFP + Vif (tagged APOBEC3F with the HIV-1 protein that degrades it), eYFP fluorescence, 24 h
# Text: The recent discovery and characterization of host restriction factors, which provide a potent defense to invading retroviruses, has provided new targets for antiviral drug development. […] In the presence of an inhibitor, it is expected that Vif will be unable to degrade A3G-eYFP and/or A3F-eYFP, resulting in an increase in yellow fluorescence. […]
Screen size: about 2,100 compounds; about 590 (28%) were called active. Roughly 42% stayed inconclusive and do not appear here. Some of the results follow.
observation type: Potency

structure string: CCOC(=O)c1cc(-c2ccccc2)sc1NC(=S)Nc1cc(C)ccn1
experimental result: 8.2 µM (active)

structure string: COc1ccc(-c2cnc3c(NC=O)cc(-c4cc(OC)c(OC)c(OC)c4)cn23)cc1OC
experimental result: 15.8 µM (active)

structure string: Cc1cc(C)c2nc(SCC(=O)N3CC(=O)Nc4ccccc43)c(C#N)cc2c1
experimental result: 3.96 µM (active)

structure string: COc1ccc(-c2cc(NC=O)c3ncc(-c4ccc(OC)c(OC)c4)n3c2)cc1OC
experimental result: 7.04 µM (active)

structure string: COc1cc(/C=C2\COC/C(=C\c3ccc(O)c(OC)c3)C2=O)ccc1O
experimental result: 14 µM (active)

structure string: COc1cccc(-c2ccc3c(N)c(C(=O)c4ccc(Br)cc4)sc3n2)c1
experimental result: 10.3 µM (active)

structure string: COc1ccc(-c2cnc3c(NC=O)cc(-c4ccoc4)cn23)cc1OC
experimental result: 11.2 µM (active)

structure string: Cn1nnc2c[n+](CC(=O)c3ccc(Cl)cc3)cc(Br)c21
experimental result: 17.7 µM (active)

structure string: O=C(O)CCCN1C(=O)/C(=C\C(Cl)=C\c2ccccc2)SC1=S
experimental result: 4.44 µM (active)

structure string: CN(C)c1ccc(/C=C2\C(=N)N3N=C(CC(=O)N4CCCCC4)SC3=NC2=O)cc1
experimental result: 16.4 µM (active)
